# Test system: IKZF2 (Homo sapiens, UniProt Q96SW2+Q9UKS7)
# Construct: expressed in transfected cells
# Sequence (Q9UKS7 1-500 isoform Q9UKS7-2): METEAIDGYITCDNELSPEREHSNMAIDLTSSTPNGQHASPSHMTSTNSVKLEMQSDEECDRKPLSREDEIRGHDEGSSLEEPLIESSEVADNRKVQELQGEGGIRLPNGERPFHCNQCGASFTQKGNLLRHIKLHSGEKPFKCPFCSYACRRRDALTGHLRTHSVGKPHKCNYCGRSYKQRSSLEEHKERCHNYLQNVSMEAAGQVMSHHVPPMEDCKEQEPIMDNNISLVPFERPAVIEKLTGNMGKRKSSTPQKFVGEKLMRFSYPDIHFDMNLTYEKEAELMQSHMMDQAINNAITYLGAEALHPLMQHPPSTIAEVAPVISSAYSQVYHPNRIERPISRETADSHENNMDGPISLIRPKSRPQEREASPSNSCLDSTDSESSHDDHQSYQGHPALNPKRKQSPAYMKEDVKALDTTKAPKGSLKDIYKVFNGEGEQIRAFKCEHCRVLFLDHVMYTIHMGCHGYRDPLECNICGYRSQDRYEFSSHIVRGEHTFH
# Sequence (Q96SW2 whole entry): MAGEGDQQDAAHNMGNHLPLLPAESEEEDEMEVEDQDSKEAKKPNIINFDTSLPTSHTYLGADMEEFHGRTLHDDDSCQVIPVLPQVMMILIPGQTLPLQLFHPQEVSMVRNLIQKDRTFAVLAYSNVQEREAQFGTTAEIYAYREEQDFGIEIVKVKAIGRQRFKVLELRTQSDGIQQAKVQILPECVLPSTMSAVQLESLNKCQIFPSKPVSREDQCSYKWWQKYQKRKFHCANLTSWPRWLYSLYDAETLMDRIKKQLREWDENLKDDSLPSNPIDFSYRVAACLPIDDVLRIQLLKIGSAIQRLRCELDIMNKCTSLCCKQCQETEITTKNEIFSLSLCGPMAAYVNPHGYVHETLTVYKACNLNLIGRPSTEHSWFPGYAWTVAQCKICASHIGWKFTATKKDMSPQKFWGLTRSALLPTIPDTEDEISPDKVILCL
# Sequence (Q16531 whole entry partner): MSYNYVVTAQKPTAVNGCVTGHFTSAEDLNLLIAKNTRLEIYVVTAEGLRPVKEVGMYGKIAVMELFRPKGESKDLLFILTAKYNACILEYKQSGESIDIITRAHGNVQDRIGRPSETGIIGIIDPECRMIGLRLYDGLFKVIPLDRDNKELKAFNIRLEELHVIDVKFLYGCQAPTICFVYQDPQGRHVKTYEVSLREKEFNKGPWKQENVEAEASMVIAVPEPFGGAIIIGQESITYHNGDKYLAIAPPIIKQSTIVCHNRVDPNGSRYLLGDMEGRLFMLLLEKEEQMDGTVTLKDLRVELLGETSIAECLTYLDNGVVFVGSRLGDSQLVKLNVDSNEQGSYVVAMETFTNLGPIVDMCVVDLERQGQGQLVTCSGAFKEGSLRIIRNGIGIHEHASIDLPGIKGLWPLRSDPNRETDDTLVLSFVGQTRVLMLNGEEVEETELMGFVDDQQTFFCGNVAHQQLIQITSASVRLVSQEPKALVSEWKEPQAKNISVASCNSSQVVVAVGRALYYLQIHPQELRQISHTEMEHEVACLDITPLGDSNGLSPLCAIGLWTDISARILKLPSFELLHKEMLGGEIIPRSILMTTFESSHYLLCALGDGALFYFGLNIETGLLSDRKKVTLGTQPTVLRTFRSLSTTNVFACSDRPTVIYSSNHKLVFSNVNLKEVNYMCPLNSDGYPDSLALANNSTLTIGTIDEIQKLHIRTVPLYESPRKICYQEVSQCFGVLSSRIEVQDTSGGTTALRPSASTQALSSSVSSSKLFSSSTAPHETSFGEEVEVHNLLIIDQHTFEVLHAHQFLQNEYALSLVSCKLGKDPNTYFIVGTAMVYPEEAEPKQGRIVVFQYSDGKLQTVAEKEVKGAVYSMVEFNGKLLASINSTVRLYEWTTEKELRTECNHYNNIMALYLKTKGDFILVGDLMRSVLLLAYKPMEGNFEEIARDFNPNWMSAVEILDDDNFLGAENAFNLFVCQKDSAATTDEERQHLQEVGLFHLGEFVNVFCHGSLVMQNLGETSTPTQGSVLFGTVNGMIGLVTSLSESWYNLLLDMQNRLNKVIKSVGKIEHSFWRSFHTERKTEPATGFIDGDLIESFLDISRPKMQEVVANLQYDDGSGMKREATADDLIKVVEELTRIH
# Protocol details: HiBiT protein tagging assay, in vitro IKZF2 degradation (HEK293)
# Format: cell-based
# Recorded conditions: HiBiT assay, HEK293, 18-24 hr incubation, normalized to DMSO control; read-out: IKZF2 EC50
Reported metric: DC50 (µM)
Write the value in µM as a bare number.

Q) What measured DC50 goes with O=C1CCC(N2Cc3cc(CNC4CCCCC4)ccc3C2=O)C(=O)N1 (stereo not shown) [Example 5] ?
A) 0.118

Q) What measured DC50 goes with O=C1CCC(N2Cc3cc(CN[C@@H]4C[C@H](F)CN(Cc5ccccc5)C4)ccc3C2=O)C(=O)N1 (stereo partly shown) [Example 45] ?
A) 0.182

Q) What measured DC50 goes with O=C1CCC(N2Cc3cc(CN[C@@H]4CCC[C@H](C(=O)c5ccccc5)C4)ccc3C2=O)C(=O)N1 (stereo partly shown) [Example 129] ?
A) 0.193

Q) What measured DC50 goes with O=C1CCC(N2Cc3cc(CN[C@H]4CCC[C@@H](OCc5ccccc5)C4)ccc3C2=O)C(=O)N1 (stereo partly shown) [Example 111] ?
A) 0.206

Q) What measured DC50 goes with O=C1CCC(N2Cc3cc(CN[C@@H]4CCC[C@H](COCc5ccccc5)C4)ccc3C2=O)C(=O)N1 (stereo partly shown) [Example 146] ?
A) 0.009

Q) What measured DC50 goes with CC1(C)C[C@]2(CC[C@@H](NCc3ccc4c(c3)CN(C3CCC(=O)NC3=O)C4=O)CC2)CO1 (stereo partly shown) [Example 118] ?
A) 0.453

Q) What measured DC50 goes with C[C@@H]1[C@@H](NCc2ccc3c(c2)CN(C2CCC(=O)NC2=O)C3=O)C[C@H]2C[C@@H]1C2(C)C (stereo partly shown) [Example 134] ?
A) 0.111
